- target-under-test: human TAS2R14 (Homo sapiens)
- Construct: expressed in transfected cells; host or cells: HEK293T-Gα16gust44
- Sequence (Q9NYV8 whole entry): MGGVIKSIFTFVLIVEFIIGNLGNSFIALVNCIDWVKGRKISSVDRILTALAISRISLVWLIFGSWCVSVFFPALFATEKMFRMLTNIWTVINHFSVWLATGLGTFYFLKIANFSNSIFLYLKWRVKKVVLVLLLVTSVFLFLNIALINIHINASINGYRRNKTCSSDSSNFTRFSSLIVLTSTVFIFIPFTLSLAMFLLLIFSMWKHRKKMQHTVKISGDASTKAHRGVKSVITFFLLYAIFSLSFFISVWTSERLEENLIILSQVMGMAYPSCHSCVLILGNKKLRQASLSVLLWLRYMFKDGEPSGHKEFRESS
- experiment-description: Calcium imaging assay (FLIPR), HEK293T-Gα16gust44 cells transfected with human TAS2R14
- Format: cell-based
- run-conditions: TAS2R14 trace; Time (s) 191.578 (Taurocholic Acid 191.563, Chenodeoxycholic Acid 191.546)

test-smiles	RLU
C[C@H](CCC(=O)NCCS(=O)(=O)O)[C@H]1CC[C@H]2[C@@H]3[C@H](O)C[C@@H]4C[C@H](O)CC[C@]4(C)[C@H]3C[C@H](O)[C@]12C	745.479 RLU
C[C@H](CCC(=O)NCCS(=O)(=O)O)[C@H]1CC[C@H]2[C@@H]3CC[C@@H]4C[C@H](O)CC[C@]4(C)[C@H]3CC[C@]12C	317.716 RLU
C[C@H](CCC(=O)O)[C@H]1CC[C@H]2[C@@H]3[C@H](O)C[C@@H]4C[C@H](O)CC[C@]4(C)[C@H]3CC[C@]12C	185.369 RLU
C[C@H](CCC(=O)O)[C@H]1CC[C@H]2[C@@H]3[C@H](O)C[C@@H]4C[C@H](O)CC[C@]4(C)[C@H]3C[C@H](O)[C@]12C	855.583 RLU
C[C@H](CCC(=O)NCC(=O)O)[C@H]1CC[C@H]2[C@@H]3[C@H](O)C[C@@H]4C[C@H](O)CC[C@]4(C)[C@H]3C[C@H](O)[C@]12C	666.973 RLU

----------
- target-under-test: human TAS2R1 (Homo sapiens, UniProt Q9NYW7)
- Construct: expressed in transfected cells; host or cells: HEK293T-Gα16gust44
- experiment-description: Calcium imaging assay (FLIPR), HEK293T-Gα16gust44 cells transfected with human TAS2R1
- Format: cell-based
- run-conditions: Time 72.796 s
Listing of recorded RLU by entry.
attribute-measured: RLU (RLU)

test-smiles	scale-unit	val
C[C@H](CCC(=O)O)[C@H]1CC[C@H]2[C@@H]3[C@H](O)C[C@@H]4C[C@H](O)CC[C@]4(C)[C@H]3C[C@H](O)[C@]12C	RLU	724.252
C[C@H](CCC(=O)O)[C@H]1CC[C@H]2[C@@H]3[C@@H](O)C[C@@H]4C[C@H](O)CC[C@]4(C)[C@H]3CC[C@]12C	RLU	618.535
C[C@H](CCC(=O)O)[C@H]1CC[C@H]2[C@@H]3[C@H](O)C[C@@H]4C[C@H](O)CC[C@]4(C)[C@H]3CC[C@]12C	RLU	854.469
C[C@H](CCC(=O)O)[C@H]1CC[C@H]2[C@@H]3CC[C@@H]4C[C@H](O)CC[C@]4(C)[C@H]3CC[C@]12C	RLU	860.887

----------
- target-under-test: human TAS2R1 (Homo sapiens, UniProt Q9NYW7)
- Construct: expressed in transfected cells; host or cells: HEK293T-Gα16gust44
- Sequence (Q9NYW7 1-299): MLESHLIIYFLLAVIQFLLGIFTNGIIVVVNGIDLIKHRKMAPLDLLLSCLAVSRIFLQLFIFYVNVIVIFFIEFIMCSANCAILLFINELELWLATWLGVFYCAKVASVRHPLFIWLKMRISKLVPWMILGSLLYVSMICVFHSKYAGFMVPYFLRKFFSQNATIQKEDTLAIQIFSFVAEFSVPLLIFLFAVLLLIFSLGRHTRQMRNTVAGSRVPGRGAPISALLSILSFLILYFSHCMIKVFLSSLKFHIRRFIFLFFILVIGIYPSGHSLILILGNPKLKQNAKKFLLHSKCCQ
- experiment-description: Calcium imaging assay (FLIPR), HEK293T-Gα16gust44 cells transfected with human TAS2R1
- Format: cell-based
- run-conditions: Time 120.781 s
Listing of recorded RLU by entry.

compound	target-under-test	scale-unit	RLU
C[C@H](CCC(=O)O)[C@H]1CC[C@H]2[C@@H]3CC[C@@H]4C[C@H](O)CC[C@]4(C)[C@H]3C[C@H](O)[C@]12C [Deoxycholic Acid, deoxycholic acid]	human TAS2R1 (Homo sapiens, UniProt Q9NYW7)	RLU	358.058
C[C@H](CCC(=O)NCC(=O)O)[C@H]1CC[C@H]2[C@@H]3[C@H](O)C[C@@H]4C[C@H](O)CC[C@]4(C)[C@H]3C[C@H](O)[C@]12C [Glycocholic Acid, glycocholic acid]	human TAS2R1 (Homo sapiens, UniProt Q9NYW7)	RLU	451.439
C[C@H](CCC(=O)NCCS(=O)(=O)O)[C@H]1CC[C@H]2[C@@H]3CC[C@@H]4C[C@H](O)CC[C@]4(C)[C@H]3CC[C@]12C [Taurolithocholic Acid, taurolithocholic acid]	human TAS2R1 (Homo sapiens, UniProt Q9NYW7)	RLU	524.165
C[C@H](CCC(=O)NCCS(=O)(=O)O)[C@H]1CC[C@H]2[C@@H]3[C@H](O)C[C@@H]4C[C@H](O)CC[C@]4(C)[C@H]3C[C@H](O)[C@]12C [Taurocholic Acid, taurocholic acid]	human TAS2R1 (Homo sapiens, UniProt Q9NYW7)	RLU	314.431
